measured.on: human recombinant P2X7 receptor (Homo sapiens (Human))
protocol.description: YO-PRO assay: P2X7 receptor antagonistic activity
protocol.conditions: HEK cells expressing human P2X7
pIC50: −log10 of the molar value.
measurement.kind: pIC50

1. COc1ccc(CC(=O)NC2COc3ncccc32)c(OC)c1 (racemic) [Example 19]: < 5.18
2. N#Cc1ccc(CC(=O)NC2CCOc3ncccc32)cc1 (racemic) [Example 45]: < 5.19

Switching to the query record.
Value of measured pIC50 for the entry COc1ccccc1CC(=O)NC1COc2ncccc21 (racemic) [Example 12] : < 5.22

====

measured.on: human recombinant P2X7 receptor (Homo sapiens (Human), UniProt Q99572)
Sequence (Q99572 whole entry): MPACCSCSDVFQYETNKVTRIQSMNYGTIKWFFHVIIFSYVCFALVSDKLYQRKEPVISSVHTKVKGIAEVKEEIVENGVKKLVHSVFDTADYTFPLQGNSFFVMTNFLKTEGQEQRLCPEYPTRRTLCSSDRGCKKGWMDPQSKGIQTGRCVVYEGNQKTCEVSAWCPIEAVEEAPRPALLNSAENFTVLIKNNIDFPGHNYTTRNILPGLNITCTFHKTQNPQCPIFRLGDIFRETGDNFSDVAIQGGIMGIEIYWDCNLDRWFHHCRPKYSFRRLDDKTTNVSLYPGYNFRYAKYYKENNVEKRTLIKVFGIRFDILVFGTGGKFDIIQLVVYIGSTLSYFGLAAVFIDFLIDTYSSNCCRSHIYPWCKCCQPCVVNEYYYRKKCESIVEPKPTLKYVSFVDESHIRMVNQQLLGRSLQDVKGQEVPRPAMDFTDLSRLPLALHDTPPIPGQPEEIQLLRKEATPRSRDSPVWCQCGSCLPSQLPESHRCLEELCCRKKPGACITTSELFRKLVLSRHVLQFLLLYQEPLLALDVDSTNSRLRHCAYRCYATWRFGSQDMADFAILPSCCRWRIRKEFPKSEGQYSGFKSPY
protocol.description: YO-PRO assay: P2X7 receptor antagonistic activity
protocol.conditions: HEK cells expressing human P2X7
pIC50: −log10 of the molar value.
Label rule, in plain words: pIC50 of 7 and up is TRUE, under 7 is FALSE.

1) Cc1cncc2c1C(NC(=O)Cc1cccc(C(F)(F)F)c1Cl)CO2 (racemic) [Example 128]: TRUE

Check this molecule for pIC50 at or above 7: CC(C(=O)NC1COc2ncccc21)c1ccc(Cl)cc1Cl (single isomer, unassigned) [Example 92]
TRUE

Assess whether reported pIC50 for Cc1cc(Cl)cc(Cl)c1CC(=O)NC1COc2cnccc21 (single isomer, unassigned) [Example 102] sits at 7 or higher.
TRUE

Tell me whether pIC50 is at least 7 here: CC(C(=O)NC1COc2ncccc21)c1ccc(Cl)cc1Cl (single isomer, unassigned) [Example 94]
TRUE

Textbook exercise: given the entry COc1ccc(CC(=O)NC2COc3ncccc32)c(F)c1 (racemic) [Example 20] , state whether its pIC50 is greater than or equal to 7.
FALSE

Entry Cc1ccc(CC(=O)NC2COc3ncccc32)cc1 (racemic) [Example 14] : is its pIC50 no less than 7?
FALSE

Textbook exercise: given the entry O=C(Cc1ccc(F)cc1C(F)(F)F)NC1CCOc2ncccc21 (racemic) [Example 52] , state whether its pIC50 is greater than or equal to 7.
FALSE

Is pIC50 at least 7? Consider Cc1ccc(OCC(=O)NC2COc3ncccc32)c(C)c1 (racemic) [Example 142]
FALSE

Entry Cc1cc(Cl)cc(Cl)c1CC(=O)NC1CCOc2ncccc21 (single isomer, unassigned) [Example 29] : is its pIC50 no less than 7?
FALSE

Reported pIC50 reaches at least 7 for O=C(Cc1c(F)cccc1Cl)NC1CCOc2ncccc21 (racemic) [Example 50] ?
FALSE

In plain terms: is recorded pIC50 at least 7 for O=C(Cc1cc(F)c(Cl)cc1Cl)NC1COc2ncccc21 (racemic) [Example 41] ?
FALSE
